B1: glmS ribozyme (parent)
chain: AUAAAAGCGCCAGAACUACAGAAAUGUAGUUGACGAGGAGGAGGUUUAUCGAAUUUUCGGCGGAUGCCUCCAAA

Variants of: B1
Assay: self-cleavage kobs at 2500 uM GlcN6P; higher = faster cleavage; RNA array
Conditions: with glucosamine-6-phosphate
This sample holds only a part of the variants without activity.
readout_kind: self-cleavage kobs at 2500 uM GlcN6P

Entry C10G C50G : reported self-cleavage kobs at 2500 uM GlcN6P = ?
9.17e-05 s⁻¹
